Data origin, for the record: patent US12264173B2

- Tested on: RSV strain A2
- EXPERIMENTAL PROTOCOL: microbe, parasite or virus in culture
- Type: cell-based
- PARTICULARS: Table 3; HEp-2 cells, RSV A2, 4 days; read-out: RSV HEp-2 EC50
# strict inequality: EC50 < 90 nM yields satisfied, everything else yields not satisfied

Example entries and their recorded answers appear below.
CC(C)C(=O)O[C@H]1[C@H](c2ccc3c(N)ncnn23)O[C@](C#N)(COP(=O)(N[C@@H](C)C(=O)O[C@H]2CCOC2)Oc2ccccc2)[C@H]1OC(=O)C(C)C (single isomer, unassigned)
satisfied
CCC(=O)O[C@H]1[C@H](c2ccc3c(N)ncnn23)O[C@](C#N)(CO[P@](=O)(N[C@@H](C)C(=O)OCC2CCN(CC(F)(F)F)CC2)Oc2ccccc2)[C@H]1OC(=O)CC
not satisfied
CCC(=O)O[C@H]1[C@H](c2ccc3c(N)ncnn23)O[C@](C#N)(CO[P@@](=O)(N[C@@H](C)C(=O)OCC2CCOCC2)Oc2ccccc2)[C@H]1OC(=O)CC
not satisfied

Problem: Determine whether this molecule shows EC50 lower than 90 nM (ties excluded): `CC(=O)O[C@H]1[C@H](c2ccc3c(N)ncnn23)O[C@](C#N)(CO[P@](=O)(N[C@@H](C)C(=O)OCC2CC2)Oc2ccccc2)[C@H]1OC(C)=O`
Result: not satisfied

* * *

- Tested on: RSV strain A2
- EXPERIMENTAL PROTOCOL: microbe, parasite or virus in culture
- Format: cell-based
- PARTICULARS: Table 3; HEp-2 cells, RSV A2, 4 days; read-out: RSV HEp-2 EC50
pEC50: −log10 of the molar value.
# binarize pEC50: threshold 7 inclusive, high side Yes, low side No

Before answering, review these 5 worked examples.
CC(C)C(=O)OC1C(c2ccc3c(N)ncnn23)OC(C#N)(COP(=O)(NC(C)C(=O)OC2CCN(C)C2)Oc2ccccc2)C1OC(=O)C(C)C (single isomer, unassigned) [Example 229]
Yes
C[C@H](NP(=O)(OC[C@@]1(C#N)O[C@@H](c2ccc3c(N)ncnn23)[C@H](OC(=O)C(C)(C)C)[C@@H]1OC(=O)C(C)(C)C)Oc1ccccc1)C(=O)OC1CCOCC1 (single isomer, unassigned) [Example 172]
No
CC(=O)O[C@H]1[C@H](c2ccc3c(N)ncnn23)O[C@](C#N)(COP(=O)(N[C@@H](C)C(=O)OC2CCC2)Oc2ccccc2)[C@H]1OC(C)=O (stereo partly drawn)
Yes
CCC(=O)OC1C(c2ccc3c(N)ncnn23)OC(C#N)(COP(=O)(NC(C)C(=O)OCC2CCC2)Oc2ccccc2)C1OC(=O)CC (stereo not drawn) [Example 92]
Yes
CCCCC(=O)O[C@H]1[C@H](c2ccc3c(N)ncnn23)O[C@](C#N)(COP(=O)(N[C@@H](C)C(=O)OCC)N[C@@H](C)C(=O)OCC)[C@H]1OC(=O)CCCC
No

Problem: Tell me whether pEC50 is at least 7 here: `CC(=O)O[C@H]1[C@H](c2ccc3c(N)ncnn23)O[C@](C#N)(CO[P@](=O)(N[C@@H](C)C(=O)OCC2CCOCC2)Oc2ccccc2)[C@H]1OC(C)=O`
Result: No

Problem: Say whether CCCOC(=O)[C@H](C)NP(=O)(OC[C@@]1(C#N)O[C@@H](c2ccc3c(N)ncnn23)[C@H](OC(=O)CC)[C@@H]1OC(=O)CC)Oc1ccccc1 (single isomer, unassigned) [Example 188] shows pEC50 of 7 or more.
Result: Yes

Problem: Threshold query (pEC50 >= 7) on CCC(=O)O[C@H]1[C@H](c2ccc3c(N)ncnn23)O[C@](C#N)(COP(=O)(N[C@@H](C)C(=O)OC2CCC2)Oc2ccccc2)[C@H]1OC(=O)CC (stereo partly drawn)
Result: Yes

* * *

- Tested on: RSV strain A2
- EXPERIMENTAL PROTOCOL: microbe, parasite or virus in culture
- Type: cell-based
- PARTICULARS: Table 3; HEp-2 cells, RSV A2, 4 days; read-out: RSV HEp-2 EC50
Quick list: pEC50 per entry.
Note on pEC50: it is the negative log10 of concentration, concentration in mol/L.

CC(C)C(=O)O[C@H]1[C@H](c2ccc3c(N)ncnn23)O[C@](C#N)(COP(=O)(N[C@@H](C)C(=O)O[C@@H]2CCOC2)Oc2ccccc2)[C@H]1OC(=O)C(C)C (single isomer, unassigned) [Example 244]
7.20
CC(C)C(=O)O[C@H]1[C@H](c2ccc3c(N)ncnn23)O[C@](C#N)(COP(=O)(N[C@@H](C)C(=O)OCC(C)(C)O)Oc2ccccc2)[C@H]1OC(=O)C(C)C (single isomer, unassigned) [Example 258]
7.04
CC(=O)O[C@H]1[C@H](c2ccc3c(N)ncnn23)O[C@](C#N)(CO[P@](=O)(N[C@@H](C)C(=O)OCC2CCC2)Oc2ccccc2)[C@H]1OC(C)=O [Example 96]
7.20

// next item, pEC50 requested
Problem: Provide measured pEC50 on RSV strain A2 for CC(C)C(=O)O[C@H]1[C@H](c2ccc3c(N)ncnn23)O[C@](C#N)(COP(=O)(N[C@@H](C)C(=O)OCC(C)(C)O)Oc2ccccc2)[C@H]1OC(=O)C(C)C (single isomer, unassigned) [Example 257] please.
Result: 7.14
